System: Saccharomyces cerevisiae
protocol-text: protein stability index of tFT-peptide fusion (C-terminal peptide) (PSI (0-1 scale)); higher = more stable (slower turnover)
condition-set: genetic background: das1 deletion; temperature: 30 C
Documented protein stability index across a set of sequences
// print number alone

INSERT INTO measurements (residue_codes, target_desc, readout_kind, readout_value) VALUES
  ('VKKLLEIRSKSS [GTT2 C-terminal 12 aa]', 'Saccharomyces cerevisiae', 'protein stability index', 0.681),
  ('SFSYLWRNFGFI [PDR18 C-terminal 12 aa]', 'Saccharomyces cerevisiae', 'protein stability index', 0.748),
  ('QRTRRRMSLYKL [TOS3 C-terminal 12 aa]', 'Saccharomyces cerevisiae', 'protein stability index', 0.807),
  ('APNSNSSSGSVS [YFL013W-A C-terminal 12 aa]', 'Saccharomyces cerevisiae', 'protein stability index', 0.673),
  ('LVGGGIKKSGKK [TMA7 C-terminal 12 aa]', 'Saccharomyces cerevisiae', 'protein stability index', 0.67);

Identify the measured protein stability index of GKLPSSLLSYFV [ZUO1 C-terminal 12 aa] for Saccharomyces cerevisiae.
0.722

* * *

Tested on: Saccharomyces cerevisiae
protocol-text: protein stability index of tFT-peptide fusion (C-terminal peptide) (PSI (0-1 scale)); higher = more stable (slower turnover)
condition-set: genetic background: wild type; temperature: 30 C
Documented protein stability index across a set of sequences
// print number alone

Previously resolved entries follow.
INSERT INTO results (residue_codes, readout_value) VALUES
  ('VRLLLIFRLLVI', 0.267),
  ('ALHGTVRNWQRQ', 0.245),
  ('FLVVCGLLSWVW', 0.28),
  ('WFSAGSCRWVLC', 0.143),
  ('CSLFFFRLIFTL', 0.0603);

Tell me the measured protein stability index of HHRLRQGLRRIN , please.
0.293

Tell me the measured protein stability index of INHVIHAKLRFS , please.
0.13

Tell me the measured protein stability index of CYVFLCGSFVFV , please.
0.351

Tell me the measured protein stability index of LGCRFCFVGVVG , please.
0.439

Tell me the measured protein stability index of FTFLFPLRLLPL , please.
0.374

Tell me the measured protein stability index of FILLIFLSLLSP , please.
0.281

Tell me the measured protein stability index of ARFCFRIFSFAS , please.
0.0456

Tell me the measured protein stability index of LRMMLLVTIILE , please.
0.0921

Tell me the measured protein stability index of SVFGVRARFGSV , please.
0.724

* * *

Test system: Saccharomyces cerevisiae
protocol-text: protein stability index of tFT-peptide fusion (C-terminal peptide) (PSI (0-1 scale)); higher = more stable (slower turnover)
condition-set: genetic background: wild type; temperature: 30 C
Documented protein stability index across a set of sequences
// print number alone

Previously resolved entries follow.
INSERT INTO results (residue_codes, readout_value) VALUES
  ('LPSCKVSLASLL', 0.628),
  ('FSFCQLSLASFP', 0.571),
  ('LWGGAGLRCGGF', 0.726);

Then there is this sequence:
Identify the measured protein stability index of SLRILFDLRISL for Saccharomyces cerevisiae.
0.605

* * *

Tested on: Saccharomyces cerevisiae
protocol-text: protein stability index of tFT-peptide fusion in deletion strain of DOA10 (PSI (0-1 scale)); higher = more stable (slower turnover)
Documented protein stability index across a set of sequences
// print number alone

Previously resolved entries follow.
INSERT INTO results (residue_codes, target_desc, readout_value) VALUES
  ('RHTRLDAIYFRI', 'Saccharomyces cerevisiae', 0.679),
  ('RVTRLDSIYFRI', 'Saccharomyces cerevisiae', 0.703),
  ('AITLPMWPLLLR', 'Saccharomyces cerevisiae', 0.673),
  ('GGYMCSVGCWFR', 'Saccharomyces cerevisiae', 0.687);

Identify the measured protein stability index of CLSSLPILLFFR for Saccharomyces cerevisiae.
0.641
